We begin with a simple list: items and their reported Relative activity.
System: purine nucleosidase
Assay: Effect of metal ions on purine nucleosidase
Format: biochemical, Ochrobactrum anthropi
Details: 1 mM metal, pH 4.5, 30° C., 40 minutes; not added = 100.0
Your answer should be a plain number; it is taken to be in %.

Example entries and their recorded answers appear below.
Qu. I am curious: what Relative activity value has been reported for `[Cl-].[Rb+]` ?
Ans. 106.5

Qu. I am curious: what Relative activity value has been reported for `O=S(=O)([O-])[O-].[Ag+].[Ag+]` ?
Ans. 31.6

Qu. I am curious: what Relative activity value has been reported for `[Cl-].[Na+]` ?
Ans. 93.3

Qu. I am curious: what Relative activity value has been reported for `[Ca+2].[Cl-].[Cl-]` ?
Ans. 101.7

Qu. I am curious: what Relative activity value has been reported for `[Cl][Pb][Cl]` ?
Ans. 111.0

Others:
Qu. I am curious: what Relative activity value has been reported for `[Cl-].[Cl-].[Co+2]` ?
Ans. 82.9

Qu. I am curious: what Relative activity value has been reported for `O=S(=O)([O-])[O-].[Be+2]` ?
Ans. 88.9

Qu. I am curious: what Relative activity value has been reported for `[Cl-].[Li+]` ?
Ans. 103.0

Qu. I am curious: what Relative activity value has been reported for `[Cl][Al]([Cl])[Cl]` ?
Ans. 73.6

Qu. I am curious: what Relative activity value has been reported for `[Cl][Sn][Cl]` ?
Ans. 113.2

Qu. I am curious: what Relative activity value has been reported for `O=S(=O)([O-])[O-].[Fe+2]` ?
Ans. 92.6

Qu. I am curious: what Relative activity value has been reported for `[Cl-].[Cl-].[Mg+2]` ?
Ans. 91.6

Qu. I am curious: what Relative activity value has been reported for `[Cl][Hg][Cl]` ?
Ans. 39.4

Qu. I am curious: what Relative activity value has been reported for `[Ba+2].[Cl-].[Cl-]` ?
Ans. 86.1

Qu. I am curious: what Relative activity value has been reported for `[Cl-].[Cs+]` ?
Ans. 106.9

Qu. I am curious: what Relative activity value has been reported for `[Cl][Cd][Cl]` ?
Ans. 124.9

====

Tested on: purine nucleosidase
Test: Effect of inhibitors on purine nucleosidase
Assay type: biochemical, Ochrobactrum anthropi
Settings: 1 mM inhibitor, pH 4.5, 30° C., 20 minutes; not added = 100.0
metric_name: Relative activity (%)
Your answer should be a plain number; it is taken to be in %.

Example entries and their recorded answers appear below.
Qu. I am curious: what Relative activity value has been reported for `O=C(O)CI` ?
Ans. 99.4

Qu. I am curious: what Relative activity value has been reported for NNC(N)=O [semicarbazide] ?
Ans. 103.4

Others:
Qu. I am curious: what Relative activity value has been reported for O=C1CCC(=O)N1Br [N-bromosuccimide] ?
Ans. 113.7

Qu. I am curious: what Relative activity value has been reported for `c1cnc2c(c1)ccc1cccnc12` ?
Ans. 78.3

Qu. I am curious: what Relative activity value has been reported for Oc1cccc2cccnc12 [8-hydroxyquinoline] ?
Ans. 8.5

Qu. I am curious: what Relative activity value has been reported for `O=C(O)c1cc[c]([Hg][Cl])cc1` ?
Ans. 80.2

Qu. I am curious: what Relative activity value has been reported for Cl.NO [NH2 OH·HCl] ?
Ans. 106.6

Qu. I am curious: what Relative activity value has been reported for CCN1C(=O)C=CC1=O [N-ethylmaleimide] ?
Ans. 107.9

Qu. I am curious: what Relative activity value has been reported for `O=C(O)c1cc(SSc2ccc([N+](=O)[O-])c(C(=O)O)c2)ccc1[N+](=O)[O-]` ?
Ans. 37.4

Qu. I am curious: what Relative activity value has been reported for [F-].[Na+] [sodium fluoride] ?
Ans. 62.2

Qu. I am curious: what Relative activity value has been reported for O=[As]([O-])([O-])O.[Na+].[Na+] [sodium arsenate] ?
Ans. 69.4

Qu. I am curious: what Relative activity value has been reported for `O=C(O)CN(CCN(CC(=O)O)CC(=O)O)CC(=O)O` ?
Ans. 54.4

Qu. I am curious: what Relative activity value has been reported for NNc1ccccc1 [phenylhydrazine] ?
Ans. 100.4

Qu. I am curious: what Relative activity value has been reported for [N-]=[N+]=[N-] [sodium azide] ?
Ans. 72.9

====

Tested on: purine nucleosidase
Experiment: Specific activity, Km and Vmax of purine nucleosidase
Assay type: biochemical, Ochrobactrum anthropi
Conditions: 30° C., pH 4.5
metric_name: Vmax (µmol/min/mg)
Your answer should be a plain number; it is taken to be in µmol/min/mg.

Example entries and their recorded answers appear below.
Qu. Request - read-out Vmax | tested on purine nucleosidase | molecule Nc1ncnc2c1ncn2[C@@H]1O[C@H](CO)[C@@H](O)[C@H]1O [adenosine]
Ans. 28.5

Qu. Request - read-out Vmax | tested on purine nucleosidase | molecule Nc1nc2c(ncn2[C@@H]2O[C@H](CO)[C@@H](O)[C@H]2O)c(=O)[nH]1 [guanosine]
Ans. 11.5

Qu. Request - read-out Vmax | tested on purine nucleosidase | molecule OC[C@H]1O[C@@H](n2cnc3c(O)ncnc32)[C@H](O)[C@@H]1O [inosine]
Ans. 18.8

Could you now look at the following molecule, please?
Qu. Request - read-out Vmax | tested on purine nucleosidase | molecule O=c1[nH]c(=O)c2ncn([C@@H]3O[C@H](CO)[C@@H](O)[C@H]3O)c2[nH]1 [xanthosine]
Ans. 68

====

We begin with a simple list: items and their reported Km.
Test system: purine nucleosidase
Assay: Specific activity, Km and Vmax of purine nucleosidase
Type: biochemical, Ochrobactrum anthropi
Details: 30° C., pH 4.5
Method: The reaction solution (200 μl) contained 0.5 mM of adenosine or inosine or 0.25 mM of guanosine as the substrate, 50 mM of acetate buffer at pH 4.5 and a sufficient amount of enzyme. […] The reaction was terminated by addition of 20 μl of 15% perchloric acid, and after centrifugation (35,000 rpm, 10 min) the supernatant was analyzed qualitatively by thin-layer chromatography (TLC) and quantitatively by high-performance liquid chromatography. […]
Your answer should be a plain number; it is taken to be in µM.

Qu. I am curious: what Km value has been reported for `Nc1ncnc2c1ncn2[C@@H]1O[C@H](CO)[C@@H](O)[C@H]1O` ?
Ans. 17.1

Qu. I am curious: what Km value has been reported for `OC[C@H]1O[C@@H](n2cnc3c(O)ncnc32)[C@H](O)[C@@H]1O` ?
Ans. 29.6

Qu. I am curious: what Km value has been reported for `O=c1[nH]c(=O)c2ncn([C@@H]3O[C@H](CO)[C@@H](O)[C@H]3O)c2[nH]1` ?
Ans. 63.8

Others:
Qu. I am curious: what Km value has been reported for `Nc1nc2c(ncn2[C@@H]2O[C@H](CO)[C@@H](O)[C@H]2O)c(=O)[nH]1` ?
Ans. 53.9

====

Test system: purine nucleosidase
Experiment: Substrate specificity of purine nucleosidase by thin-layer chromatography
Type: biochemical, Ochrobactrum anthropi
Design: key: -: not reacted; +: <10%; ++: <31%; +++: <50%; ++++: >50%
Settings: thin-layer chromatography
metric_name: Relative activity

Example entries and their recorded answers appear below.
Qu. Request - read-out Relative activity | tested on purine nucleosidase | compound `Nc1ccn([C@@H]2O[C@H](COP(=O)(O)O)[C@@H](O)[C@H]2O)c(=O)n1`
Ans. -

Qu. Request - read-out Relative activity | tested on purine nucleosidase | compound `OC[C@H]1O[C@@H](n2cnc3c(O)ncnc32)[C@H](O)[C@@H]1O`
Ans. ++++ (>50%)

Qu. Request - read-out Relative activity | tested on purine nucleosidase | compound Nc1ncnc2c1ncn2[C@@H]1O[C@H](CO)[C@@H](O)[C@H]1OP(=O)(O)O [2'-AMP, 2'-adenosine monophosphate]
Ans. ++ (<31%)

Qu. Request - read-out Relative activity | tested on purine nucleosidase | compound `O=c1ccn([C@H]2C[C@H](O)[C@@H](CO)O2)c(=O)[nH]1`
Ans. -

Qu. Request - read-out Relative activity | tested on purine nucleosidase | compound NC(=O)c1ccc[n+]([C@@H]2O[C@H](COP(=O)([O-])OP(=O)(O)OC[C@H]3O[C@@H](n4cnc5c(N)ncnc54)[C@H](O)[C@@H]3O)[C@@H](O)[C@H]2O)c1 [β-NAD, β-nicotinamide adenine dinucleotide]
Ans. + (<10%)

Others:
Qu. Request - read-out Relative activity | tested on purine nucleosidase | compound `O=c1[nH]cnc2c1ncn2[C@@H]1O[C@H](CO)[C@@H](O)[C@H]1OP(=O)(O)O`
Ans. -

Qu. Request - read-out Relative activity | tested on purine nucleosidase | compound Nc1ncnc2c1ncn2[C@@H]1O[C@H](CO)[C@@H](OP(=O)(O)O)[C@H]1O [3'-AMP, 3'-adenosine monophosphate]
Ans. ++ (<31%)

Qu. Request - read-out Relative activity | tested on purine nucleosidase | compound `NC(=O)c1ccc[n+]([C@@H]2O[C@H](COP(=O)([O-])O)[C@@H](O)[C@H]2O)c1`
Ans. -

# credit: patent US6066484A
